Molecular target: T1, human neonatal Fc receptor (hFcRn) (human, UniProt P55899 24-290; P61769 21-119)
T1 construct: Biotinylated in the ELISA, Octet and yeast assays; also called human FcRn; huFcRn
T1 sequence (P55899 24-290 limits assumed, chain 1 of 2): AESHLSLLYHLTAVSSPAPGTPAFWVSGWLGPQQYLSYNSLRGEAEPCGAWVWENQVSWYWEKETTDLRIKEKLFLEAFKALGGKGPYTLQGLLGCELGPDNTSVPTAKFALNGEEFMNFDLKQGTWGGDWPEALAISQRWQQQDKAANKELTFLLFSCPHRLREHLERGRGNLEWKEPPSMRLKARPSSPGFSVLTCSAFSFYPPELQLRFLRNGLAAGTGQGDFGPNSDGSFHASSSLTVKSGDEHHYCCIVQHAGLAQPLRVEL
T1 sequence (P61769 21-119 limits assumed, chain 2 of 2): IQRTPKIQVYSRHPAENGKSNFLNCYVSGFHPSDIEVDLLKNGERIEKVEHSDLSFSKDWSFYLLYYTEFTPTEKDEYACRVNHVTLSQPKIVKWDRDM
Assay: phage ELISA pH 6;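 further: higher score means stronger binding and above about 3 to 5 exceeds background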
assay_metric: ELISA score
# answer = number (no unit)

Solved cases below.
binder	recorded_result
L5 isolate with insertion SEQ ID NO: 395 (other) EPKSCDKTHTCPPCPAPELLGGPSVFLFPPKPKDTLMISRTPEVTCVVVDVSHEDPEVKFNWYVDGVEVHNAKTKPREEQYNSTYRVVSVLTVLHQDWLNGKEYKCKVSNKALPAPIEKTISKAKGQPREPQVYTLPPSRDELTKNQVSLTCLVKGFYPSDIAVEWESNGGCILNFYGCGGGQPENNYKTTPPVLDSDGSFFLYSKLTVDKSRWQQGNVFSCSVMHEALHNHYTQKSLSLSPGK	89.5
L5 isolate with insertion SEQ ID NO: 479 (other) EPKSCDKTHTCPPCPAPELLGGPSVFLFPPKPKDTLMISRTPEVTCVVVDVSHEDPEVKFNWYVDGVEVHNAKTKPREEQYNSTYRVVSVLTVLHQDWLNGKEYKCKVSNKALPAPIEKTISKAKGQPREPQVYTLPPSRDELTKNQVSLTCLVKGFYPSDIAVEWESNGGCMFSHPHCGGGQPENNYKTTPPVLDSDGSFFLYSKLTVDKSRWQQGNVFSCSVMHEALHNHYTQKSLSLSPGK	35.8
L6A isolate with insertion SEQ ID NO: 400 (other) EPKSCDKTHTCPPCPAPELLGGPSVFLFPPKPKDTLMISRTPEVTCVVVDVSHEDPEVKFNWYVDGVEVHNAKTKPREEQYNSTYRVVSVLTVLHQDWLNGKEYKCKVSNKALPAPIEKTISKAKGQPREPQVYTLPPSRDELGGCRAGYGDASCGGTKNQVSLTCLVKGFYPSDIAVEWESNGQPENNYKTTPPVLDSDGSFFLYSKLTVDKSRWQQGNVFSCSVMHEALHNHYTQKSLSLSPGK	79.5
L5 isolate with insertion SEQ ID NO: 396 (other) EPKSCDKTHTCPPCPAPELLGGPSVFLFPPKPKDTLMISRTPEVTCVVVDVSHEDPEVKFNWYVDGVEVHNAKTKPREEQYNSTYRVVSVLTVLHQDWLNGKEYKCKVSNKALPAPIEKTISKAKGQPREPQVYTLPPSRDELTKNQVSLTCLVKGFYPSDIAVEWESNGGCREPHPFCGGGQPENNYKTTPPVLDSDGSFFLYSKLTVDKSRWQQGNVFSCSVMHEALHNHYTQKSLSLSPGK	88.6

Now, please, on to the next binder.
Notebook: L6A isolate with insertion SEQ ID NO: 465 (other) EPKSCDKTHTCPPCPAPELLGGPSVFLFPPKPKDTLMISRTPEVTCVVVDVSHEDPEVKFNWYVDGVEVHNAKTKPREEQYNSTYRVVSVLTVLHQDWLNGKEYKCKVSNKALPAPIEKTISKAKGQPREPQVYTLPPSRDELGGCFTNYASEKCGGTKNQVSLTCLVKGFYPSDIAVEWESNGQPENNYKTTPPVLDSDGSFFLYSKLTVDKSRWQQGNVFSCSVMHEALHNHYTQKSLSLSPGK , ELISA score read as 45.2
